The following sequences are listed with their measured protein stability index values.
tested on: Saccharomyces cerevisiae; assay: protein stability index of tFT-peptide fusion (C-terminal peptide) (PSI (0-1 scale)); higher = more stable (slower turnover); settings: genetic background: wild type; temperature: 30 C
Number only, please.

Example results:
GIGVVWLDVFKT ... 0.304
PPSPPLPPPSPF ... 0.67
YRWERIYIGLRL ... 0.188
VVVWLFRIKSNV ... 0.318
RAQQRVKERYIE ... 0.581

For the sequence SSLLLLCCLLVG , give its measured protein stability index value.
0.263

Identify measured protein stability index associated with VFFRVLVAGCRQ
0.468

Note protein stability index for the sequence shown: YGAGDLTKYFIV
0.122

Read off the recorded protein stability index for VRICVVLRVCWW
0.12

###

tested on: Saccharomyces cerevisiae; assay: protein stability index of tFT-peptide fusion (C-terminal peptide) (PSI (0-1 scale)); higher = more stable (slower turnover); conditions: genetic background: wild type; temperature: 30 C
PROPERTY LABEL: protein stability index
Form: value (number only, do not type unit).

See these solved cases before continuing.
VIMGRGGGNVGG ... 0.701
GGGGVWVSWCGW ... 0.679

Then there is this sequence:
Check the records and state protein stability index for ERSWQEKGVVRG
0.699

###

test system: Saccharomyces cerevisiae; experiment: protein stability index of tFT-peptide fusion (C-terminal peptide) (PSI (0-1 scale)); higher = more stable (slower turnover); conditions: genetic background: wild type; temperature: 30 C
I would appreciate it if you labelled entries True when protein stability index is 0.6 or higher, otherwise False.

Example entries begin here.
AAGAGAPRRPLL ... True
LPQTVPPPPSPP ... True
SSLLLLCCLLVG ... False
WFCDNHRSFGWG ... True
KSPSTRATTHTY ... True
CFFLVLPPFPLF ... False

Check this sequence for protein stability index at or above 0.6: SVSPSPPSPHLR
True

Check if protein stability index >= 0.6 (inclusive). Item: LFPRPSILKGVP
True

Hello, I need to know if PLFAPLCLNSNR has measured protein stability index not below 0.6. Thanks!
True

Test whether the sequence GNFGFKVELGVR records protein stability index of 0.6 or higher.
True

Entry RKKHKYNKKNGQ : is its protein stability index no less than 0.6?
True

###

protein stability index listing for selected sequences.
tested on: Saccharomyces cerevisiae; experiment: protein stability index of tFT-peptide fusion (C-terminal peptide) (PSI (0-1 scale)); higher = more stable (slower turnover); conditions: genetic background: wild type; temperature: 30 C
Write the number on its own, no unit after it.

APPARSTPPPRP ... 0.712
PAELGAGYVMGG ... 0.699
KKEISEKTNKKL ... 0.69
APTPPPPLSPRS ... 0.69
VSGFEGCYFSDL ... 0.712

Let us examine a further case.
Please give the documented protein stability index of QNQTYQKQKSKE
0.71

###

system: Saccharomyces cerevisiae; assay: protein stability index of tFT-peptide fusion (C-terminal peptide) (PSI (0-1 scale)); higher = more stable (slower turnover); conditions: genetic background: wild type; temperature: 30 C
PROPERTY LABEL: protein stability index

Look up and report measured protein stability index (Saccharomyces cerevisiae) for the following sequence: YVTYSGENTFGR [ATG8 C-terminal 12 aa]
0.691
